# System: Spodoptera eridania, 2nd instar larvae, southern armyworm (SAW)
# experiment: Southern armyworm (SAW) leaf dip test
# Assay type: in vivo
# Protocol: Test solutions are prepared by dissolving the test compound in a 35% acetone in water mixture to give a concentration of 10,000 ppm. Subsequent dilutions are made with water as needed. Spodoptera eridania, 2nd Instar Larvae, Southern Armyworm (SAW) A Sieva lima bean leaf expanded to 7-8 cm in length is dipped in the test solution with agitation for 3 seconds and allowed to dry in a hood. […]
This listing pairs compounds with measured SAW (300 ppm) rating.

These solved cases illustrate the format of a correct answer.
{"columns": ["compound", "SAW (300 ppm) rating"],
 "data": [
  ["CCCSC(C[N+](=O)[O-])c1ccc(OC(F)(F)F)cc1 (racemic)", "2 (2 = 26-35% kill)"],
  ["O=C(O)CSC(C[N+](=O)[O-])c1cc(Br)cs1 (stereo not drawn)", 0],
  ["CC(C(SCC(=O)O)c1ccccc1)[N+](=O)[O-] (stereo not drawn)", 0],
  ["CCCCC(CC)COC(=O)CSC(C[N+](=O)[O-])c1ccccc1 (stereo not drawn)", 0],
  ["CCCCOC(=O)CSC(C[N+](=O)[O-])c1ccco1 (stereo not drawn)", 0]
]}

Here is the next item to consider.
Ask | Any idea what its SAW (300 ppm) rating is? The compound is COC(=O)CSC(c1ccccc1)C(C)[N+](=O)[O-] (stereo not drawn)
Reply | 0
